biological target: CYP2B6 (Homo sapiens); assay: pFluor50 Michaelis–Menten kinetics, CYP2B6 with Bzres; assay type: in vitro ADME; design: purchased Sigma Aldrich (CYPexpress, Oxford Biomedical Research, Inc.) MTOXCE2B6; settings: human, CYPexpress CYP2B6 enzyme reagent, pH 7.4, CYP2B6 1 mg/mL, three biological replicates; read-out: Average KM
quantity kind: Km (µM)
Numbers only; they are read as µM.

**Query** What does the data say about its Km? Entry: O=c1ccc2nc3ccc(OCc4ccccc4)cc3oc-2c1 [Bzres, 7-(benzyloxy)-3H-phenoxazin-3-one]
**Result** 40.6

###

target: CYP2B6 (Homo sapiens, UniProt P20813); experiment: pFluor50 Michaelis–Menten kinetics, CYP2B6 with Bzres; assay type: in vitro ADME; design: purchased Sigma Aldrich (CYPexpress, Oxford Biomedical Research, Inc.) MTOXCE2B6; settings: human, CYPexpress CYP2B6 enzyme reagent, pH 7.4, CYP2B6, biological repeat 1; read-out: KM – repeat 1
Sequence (P20813 whole entry): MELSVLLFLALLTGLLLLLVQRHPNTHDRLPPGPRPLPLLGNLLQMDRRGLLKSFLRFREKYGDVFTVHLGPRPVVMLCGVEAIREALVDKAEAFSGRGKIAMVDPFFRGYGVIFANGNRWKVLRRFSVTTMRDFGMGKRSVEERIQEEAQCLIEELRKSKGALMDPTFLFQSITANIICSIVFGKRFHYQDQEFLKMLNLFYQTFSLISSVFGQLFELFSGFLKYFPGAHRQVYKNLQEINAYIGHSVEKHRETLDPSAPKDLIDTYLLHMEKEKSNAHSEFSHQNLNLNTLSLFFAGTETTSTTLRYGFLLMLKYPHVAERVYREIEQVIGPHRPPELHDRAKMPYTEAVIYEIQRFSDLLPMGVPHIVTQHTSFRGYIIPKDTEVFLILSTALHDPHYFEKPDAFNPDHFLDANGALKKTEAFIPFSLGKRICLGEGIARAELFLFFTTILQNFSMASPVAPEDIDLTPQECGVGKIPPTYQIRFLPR
quantity kind: Km (µM)
Numbers only; they are read as µM.

**Query** Checklist item: Km tested on CYP2B6 (Homo sapiens, UniProt P20813), entry O=c1ccc2nc3ccc(OCc4ccccc4)cc3oc-2c1 , value?
**Result** 33

###

biological target: CYP3A4 (Homo sapiens, UniProt P08684); assay: pFluor50 fluorogenic CYP3A4 inhibition (IC50, time dependence); details: read-out: Average IC50; CYP3A4, DBF 4 µM, 5 min pre-incubation, DMSO 0.5%
Sequence (P08684 2-503 limits assumed): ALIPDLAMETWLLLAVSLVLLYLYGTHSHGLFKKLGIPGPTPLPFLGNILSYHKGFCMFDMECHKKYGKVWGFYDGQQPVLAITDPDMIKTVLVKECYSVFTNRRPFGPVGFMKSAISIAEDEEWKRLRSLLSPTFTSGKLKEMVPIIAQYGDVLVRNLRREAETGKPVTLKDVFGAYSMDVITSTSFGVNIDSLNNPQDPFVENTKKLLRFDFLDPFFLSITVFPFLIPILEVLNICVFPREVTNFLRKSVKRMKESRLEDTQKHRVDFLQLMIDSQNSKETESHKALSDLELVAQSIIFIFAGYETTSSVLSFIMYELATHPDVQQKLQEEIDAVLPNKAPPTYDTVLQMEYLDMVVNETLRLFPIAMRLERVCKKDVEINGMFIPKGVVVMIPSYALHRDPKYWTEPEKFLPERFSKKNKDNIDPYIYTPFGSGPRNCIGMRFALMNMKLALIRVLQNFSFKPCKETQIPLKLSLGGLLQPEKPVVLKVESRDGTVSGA
quantity kind: IC50 (nM)
Numbers only; they are read as nM.

**Query** What does the data say about its IC50? Entry: Cc1ccc(-c2c(-c3nn(C)c4ncnc(N5CC[C@H](N6CCCCC6)C5)c34)cnn2C)cc1 [CYP3cide]
**Result** 126

###

biological target: CYP3A4 (Homo sapiens, UniProt P08684); experiment: pFluor50 fluorogenic CYP3A4 inhibition (IC50, time dependence); settings: read-out: IC50 (nM)– repeat 2; CYP3A4, biological repeat 2
quantity kind: IC50 (nM)
Numbers only; they are read as nM.

**Query** What does the data say about its IC50? Entry: Cc1ccc(-c2c(-c3nn(C)c4ncnc(N5CC[C@H](N6CCCCC6)C5)c34)cnn2C)cc1 [CYP3cide]
**Result** 200

###

molecular target: CYP2B6 (Homo sapiens); experiment: pFluor50 Michaelis–Menten kinetics, CYP2B6 with Bzres; assay type: in vitro ADME; design: purchased Sigma Aldrich (CYPexpress, Oxford Biomedical Research, Inc.) MTOXCE2B6; details: human, CYPexpress CYP2B6 enzyme reagent, pH 7.4, CYP2B6, biological repeat 2; read-out: KM – repeat 2
quantity kind: Km (µM)
Numbers only; they are read as µM.

**Query** Checklist item: Km tested on CYP2B6 (Homo sapiens), entry O=c1ccc2nc3ccc(OCc4ccccc4)cc3oc-2c1 [Bzres, 7-(benzyloxy)-3H-phenoxazin-3-one] , value?
**Result** 25.9

###

target: UniProt:P08684; assay: pFluor50 fluorogenic CYP3A4 inhibition (IC50, time dependence); settings: read-out: IC50 (nM)– repeat 1; CYP3A4, biological repeat 1
quantity kind: IC50

**Query** Checklist item: IC50 tested on UniProt:P08684, entry Cc1ccc(-c2c(-c3nn(C)c4ncnc(N5CC[C@H](N6CCCCC6)C5)c34)cnn2C)cc1 [CYP3cide] , value?
**Result** 108 nM
